Molecular target: Norepinephrine transporter (Rattus norvegicus, UniProt Q9WTR4)
Sequence (Q9WTR4 whole entry): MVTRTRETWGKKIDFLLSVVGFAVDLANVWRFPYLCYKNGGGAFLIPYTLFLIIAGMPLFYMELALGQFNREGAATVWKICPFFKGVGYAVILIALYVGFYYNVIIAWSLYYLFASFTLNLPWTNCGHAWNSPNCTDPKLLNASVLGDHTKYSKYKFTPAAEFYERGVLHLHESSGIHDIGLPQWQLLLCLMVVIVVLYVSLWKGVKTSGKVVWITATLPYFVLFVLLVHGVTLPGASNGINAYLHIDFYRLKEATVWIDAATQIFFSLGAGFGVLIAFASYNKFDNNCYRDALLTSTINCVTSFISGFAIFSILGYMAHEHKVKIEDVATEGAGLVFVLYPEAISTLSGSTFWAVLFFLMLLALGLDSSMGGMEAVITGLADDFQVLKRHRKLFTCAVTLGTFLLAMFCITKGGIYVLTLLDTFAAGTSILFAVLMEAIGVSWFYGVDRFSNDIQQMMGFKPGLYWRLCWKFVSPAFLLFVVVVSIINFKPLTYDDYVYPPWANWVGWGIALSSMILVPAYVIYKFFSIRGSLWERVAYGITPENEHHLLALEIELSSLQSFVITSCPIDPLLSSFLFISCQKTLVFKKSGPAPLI
Test: Affinity for norepinephrine transporter determined by [3H]nisoxetine displacement.
propertyName: Ki (nM)

compound: CCc1ccc([C@H]2C[C@H]3CCC(N3)C2C(=O)OC)cc1I (some centres undefined)
result: 89
//
compound: COC(=O)C1C2CC[C@H](C[C@@H]1c1ccc(C)cc1)N2 (some centres undefined)
result: 5.4
//
compound: COC(=O)C1C2CC[C@H](C[C@@H]1c1ccc(C)c(F)c1)N2 (some centres undefined)
result: 0.43
//
compound: CN1C2CC[C@@H]1C[C@H](c1ccc(Cl)cc1)C2C(=O)OCCc1ccc(N=S)cc1 (some centres undefined)
result: 843
//
compound: CN1[C@H]2CC[C@@H]1[C@@H](C(=O)N1CCCC1)[C@@H](c1ccc(I)cc1)C2
result: 596
//
compound: CCc1ccc([C@H]2C[C@H]3CCC(N3)C2C(=O)OC)cc1 (some centres undefined)
result: 74
//
compound: Cc1ccc(-c2cc(C3C4CC[C@H](C[C@@H]3c3ccc(Cl)cc3)N4C)on2)cc1 (some centres undefined)
result: 1030
//
compound: COC(=O)C1C2CC[C@H](C[C@H]1c1ccc(Cl)c(Cl)c1)N2C (some centres undefined)
result: 10.8
//
compound: COC(=O)[C@@H]1C2CC[C@H](C[C@@H]1c1ccccc1)N2C.Cl
result: 554

---

Target: Norepinephrine transporter (Rattus norvegicus)
pIC50: −log10 of the molar value.
Threshold rule: pIC50 greater than or equal to 6 is t; below that, f.

compound: COC(=O)C1C2CC[C@H](C[C@@H]1c1cccc(I)c1)N2 (some centres undefined)
classAssignment: f
//
compound: Cc1ccc([C@H]2C[C@H]3CCC(C2C(=O)OC(C)C)N3C)cc1 (some centres undefined)
classAssignment: f
//
compound: Cc1ccc([C@H]2C[C@H]3CCC(C2c2ccccc2)N3C)cc1 (some centres undefined)
classAssignment: t
//
compound: COC(=O)C1C2CC[C@H](C[C@@H]1c1ccc(C)cc1)N2 (some centres undefined)
classAssignment: t
//
compound: COC(=O)C1C2CC[C@H](C[C@@H]1c1ccc(C)c(F)c1)N2 (some centres undefined)
classAssignment: t
//
compound: COC(=O)C1C2CC[C@H](C[C@@H]1c1ccc(Cl)c(C)c1)N2C (some centres undefined)
classAssignment: t
//
compound: C=C(C)c1ccc([C@H]2C[C@H]3CCC(N3)C2C(=O)OC)cc1 (some centres undefined)
classAssignment: t
//
compound: CCc1ccc([C@H]2C[C@H]3CCC(N3)C2C(=O)OC)cc1I (some centres undefined)
classAssignment: t
//
compound: CCc1ccc([C@H]2C[C@H]3CCC(N3)C2C(=O)OC)cc1 (some centres undefined)
classAssignment: t
//
compound: CN1C2CC[C@@H]1C[C@H](c1ccc(Cl)cc1)C2C(=O)N1CCCC1 (some centres undefined)
classAssignment: f
//
compound: COC(=O)C1C2CC[C@H](C[C@H]1c1ccc(Cl)c(Cl)c1)N2C (some centres undefined)
classAssignment: t
//
compound: Cc1ccc(-c2cc(C3C4CC[C@H](C[C@@H]3c3ccc(Cl)cc3)N4C)on2)cc1 (some centres undefined)
classAssignment: f

---

Molecular target: Sodium-dependent noradrenaline transporter (Homo sapiens, UniProt P23975)
Sequence (P23975 whole entry): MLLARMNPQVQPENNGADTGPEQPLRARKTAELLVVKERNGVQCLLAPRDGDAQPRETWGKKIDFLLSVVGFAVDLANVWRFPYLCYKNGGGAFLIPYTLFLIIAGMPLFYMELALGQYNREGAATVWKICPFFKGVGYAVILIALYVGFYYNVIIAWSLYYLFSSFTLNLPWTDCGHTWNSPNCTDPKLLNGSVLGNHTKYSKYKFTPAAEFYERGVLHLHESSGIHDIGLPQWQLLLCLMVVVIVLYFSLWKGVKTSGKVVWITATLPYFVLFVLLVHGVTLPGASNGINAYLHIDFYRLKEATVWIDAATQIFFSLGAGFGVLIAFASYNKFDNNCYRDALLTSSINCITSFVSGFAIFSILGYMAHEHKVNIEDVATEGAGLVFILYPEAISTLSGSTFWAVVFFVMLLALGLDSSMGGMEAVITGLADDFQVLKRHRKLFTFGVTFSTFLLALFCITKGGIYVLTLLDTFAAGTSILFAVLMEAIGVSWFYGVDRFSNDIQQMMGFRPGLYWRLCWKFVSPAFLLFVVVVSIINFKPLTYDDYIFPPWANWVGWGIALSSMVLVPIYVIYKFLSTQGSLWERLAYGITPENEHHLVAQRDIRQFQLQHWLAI
Assay: Inhibition of Norepinephrine (NA) reuptake using cloned human Norepinephrine transporter was determined
pIC50: −log10 of the molar value.

compound: COC(=O)C1C2CC[C@H](C[C@@H]1c1ccc(Cl)c(C)c1)N2C (stereo partly specified)
systemName: Sodium-dependent noradrenaline transporter (Homo sapiens, UniProt P23975)
pIC50: 9.10
